tested on: A549; assay: Induction of apoptosis in human A549 cells assessed as fold increase in caspase 3/7 activation using Ac-DEVD-ACC as fluorogenic substrate at 5 ug/ml incubated for 72 hrs by fluorescence assay relative to control; assay type: functional
Measurement type: fold change (FC)

// worked examples, fold change (FC) included
- Smiles str: "CN1[C@@H]2CC[C@H]1C/C(=N/Nc1nc(-c3ccc(Br)cc3)cs1)C2"
  fold change (FC): "3 - 5"
- Smiles str: "CN1[C@@H]2CC[C@H]1C/C(=N/Nc1nc(-c3ccc(Cl)cc3Cl)cs1)C2"
  fold change (FC): "3 - 5"
- Smiles str: "CN1[C@@H]2CC[C@H]1C/C(=N/Nc1nc(-c3ccc(C(F)(F)F)cc3)cs1)C2"
  fold change (FC): "3 - 5"

Consider the additional molecule presented here.
Query string: Entry under review: CN1[C@@H]2CC[C@H]1C/C(=N/Nc1nc(-c3ccc(Cl)c(Cl)c3)cs1)C2 . Reported fold change (FC)?
Result string: 25

Every entry's value here was drawn from ChEMBL document CHEMBL4350971.
